Source of measurements: patent US20110135636A1

Biological target: T1, recombinant human EGFR extracellular domain with 6xHis (human, UniProt P00533 25-645)
T1 construct: In-house produced; also called 6xHis EGFR ECD; soluble human EGFR ECD; not shown: 6xHis tag
Assay: SPR competition, competitor 1449
Protocol: SPR analysis was performed on a Biacore 3000 machine containing four flow cells. A CM5 Biacore chip was conjugated with 10,000 Resonance units (Ru) polyclonal anti-His antibody to flow cells 1-4 according to the manufacturer's instructions. […] Immediately after antigen injection the maximal binding of the Anti-EGFR mAb without competition was established in each flow cell during a reference run. […]
Would you kindly list % inhibition for each of these binders?
Write the value in % as a bare number.

Ask | If you can, please state the reported % inhibition value of antibody 1261 (antibody, human IgG1, kappa, V domains shown, Chimeric IgG1 kappa) VH: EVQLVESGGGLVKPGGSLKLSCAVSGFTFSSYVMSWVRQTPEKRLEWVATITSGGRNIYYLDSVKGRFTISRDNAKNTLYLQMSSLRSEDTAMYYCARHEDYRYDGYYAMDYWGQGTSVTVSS VL: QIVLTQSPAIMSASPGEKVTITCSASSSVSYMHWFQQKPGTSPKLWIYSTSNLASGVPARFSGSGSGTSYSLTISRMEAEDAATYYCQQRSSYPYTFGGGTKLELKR .
Reply | -20

Ask | Now the same for antibody 992 (antibody, human IgG1, kappa, V domains shown, Chimeric mouse/human IgG1 kappa; the VL entry includes the human kappa constant region) VH: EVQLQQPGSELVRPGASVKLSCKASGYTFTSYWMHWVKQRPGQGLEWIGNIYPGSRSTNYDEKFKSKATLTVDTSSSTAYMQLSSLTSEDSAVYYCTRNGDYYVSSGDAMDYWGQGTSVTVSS VL: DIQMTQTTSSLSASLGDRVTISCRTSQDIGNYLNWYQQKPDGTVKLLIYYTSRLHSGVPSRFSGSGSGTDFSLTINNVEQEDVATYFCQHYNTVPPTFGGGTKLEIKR
Reply | 98

Ask | How about this binder: antibody 1024 (antibody, human IgG1, kappa, V domains shown, Chimeric IgG1 kappa) VH: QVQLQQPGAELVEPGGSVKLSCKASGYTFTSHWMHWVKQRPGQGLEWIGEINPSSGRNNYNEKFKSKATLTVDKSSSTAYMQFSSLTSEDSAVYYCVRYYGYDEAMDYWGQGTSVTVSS VL: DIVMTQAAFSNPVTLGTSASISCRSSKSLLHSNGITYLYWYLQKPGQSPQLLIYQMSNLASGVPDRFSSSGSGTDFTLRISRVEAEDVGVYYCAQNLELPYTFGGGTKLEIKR
Reply | 78
